Hey, just so you know, these numbers are from ChEMBL document CHEMBL5724914.

Assay Conditions: human gut metagenome, 24 h, 2 µM; also: call rule not given here
Value Type: Bacterial Biotransformation

Answered cases to consult:
Compound	Bacterial Biotransformation
CSc1ccc2c(c1)C(N1CCN(C)CC1)Cc1ccccc1S2.O=C(O)/C=C\C(=O)O (configuration not stated)	Compound NOT metabolized
CC(C)c1c(CN(C)C(C)Cc2ccccc2)n(C)n(-c2ccccc2)c1=O (configuration not stated)	Compound metabolized
CCOC(=O)C1=C(C)NC(C)=C(C(=O)OC)C1c1cccc([N+](=O)[O-])c1 (configuration not stated)	Compound metabolized
Nc1nc(N)nc(-c2cc(Cl)ccc2Cl)n1.O=C(O)/C=C\C(=O)O [IRSOGLADINE MALEATE]	Compound NOT metabolized

Give the measured Bacterial Biotransformation of CCCC(C)(COC(N)=O)COC(=O)NC(C)C (configuration not stated) .
Compound metabolized

For the compound shown here, CN(C)CCC=C1c2ccccc2COc2ccccc21 [DOXEPIN] , give the reported Bacterial Biotransformation.
Compound metabolized

Give its Bacterial Biotransformation value. Item: CC(=O)O[C@]1(C(C)=O)CC[C@H]2[C@@H]3C=C(C)C4=CC(=O)CC[C@]4(C)[C@H]3CC[C@@]21C [MEGESTROL ACETATE]
Compound metabolized

Quick one: Bacterial Biotransformation of COc1ccccc1OCCNCC(O)COc1cccc2[nH]c3ccccc3c12 (configuration not stated) ?
Compound metabolized

I would be grateful if you could share the reported Bacterial Biotransformation for CCOc1ccc2nc(S(N)(=O)=O)sc2c1 [ETHOXZOLAMIDE] .
Compound NOT metabolized

Which Bacterial Biotransformation value is on record for `Cc1cc2c(s1)Nc1ccccc1N=C2N1CCN(C)CC1` ?
Compound NOT metabolized

What measured Bacterial Biotransformation goes with CC(C)(C)NC(=O)[C@H]1CC[C@H]2[C@@H]3CC[C@H]4NC(=O)C=C[C@]4(C)[C@H]3CC[C@]12C [FINASTERIDE] ?
Compound metabolized

Query (compound): C#C[C@]1(OC(C)=O)CC[C@H]2[C@@H]3CCC4=C/C(=N/O)CC[C@@H]4[C@H]3CC[C@@]21CC [NORGESTIMATE] ; field requested: Bacterial Biotransformation
Compound metabolized

Look up Bacterial Biotransformation for this compound: CCCN1C[C@H](CSC)C[C@@H]2c3cccc4[nH]cc(c34)C[C@H]21.CS(=O)(=O)O [PERGOLIDE MESYLATE]
Compound NOT metabolized

Which Bacterial Biotransformation value belongs to CC(=O)OCC(=O)NCCCOc1cccc(CN2CCCCC2)c1 [ROXATIDINE ACETATE] ?
Compound metabolized

Can you look up the measured Bacterial Biotransformation of C#C[C@]1(OC(C)=O)CC[C@H]2[C@@H]3CCC4=CC(=O)CC[C@@H]4[C@H]3CC[C@@]21C [NORETHINDRONE ACETATE] for me?
Compound metabolized

What value of measured Bacterial Biotransformation is listed for `COc1ccc(Cc2nccc3cc(OC)c(OC)cc23)cc1OC` ?
Compound metabolized

Recorded Bacterial Biotransformation of `N#Cc1ccc2[nH]cc(CCCCN3CCN(c4ccc5oc(C(N)=O)cc5c4)CC3)c2c1` , please.
Compound metabolized
